- target-desc: HLA-A*30:01
- protocol-notes: IEDB peptide-MHC binding, purified MHC/competitive/radioactivity; filed as Kd, often an IC50 or EC50 that approximates it; bounds were set here for any values at or beyond the usual limits of such assays
- condition-parameters: source organism: Dengue virus 3 Martinique/1243/1999

primary-sequence | target-desc | unit-text | Kd
ESRTIRVLK | HLA-A*30:01 | nM | 8.81
SLLRNDVPMA | HLA-A*30:01 | nM | 2480

====

- target-desc: HLA-A*30:01
- protocol-notes: IEDB peptide-MHC binding, purified MHC/competitive/radioactivity; filed as Kd, often an IC50 or EC50 that approximates it; bounds were set here for any values at or beyond the usual limits of such assays
- condition-parameters: source organism: Vaccinia virus Copenhagen

primary-sequence | target-desc | Kd / nM
GSRKSSSIL | HLA-A*30:01 | 1.58

====

- target-desc: HLA-A*31:01
- protocol-notes: IEDB peptide-MHC binding, purified MHC/competitive/radioactivity; filed as Kd, often an IC50 or EC50 that approximates it; bounds were set here for any values at or beyond the usual limits of such assays
- condition-parameters: source organism: Dengue virus 1 Brazil/97-11/1997

primary-sequence | unit-text | relation-qualifier | Kd
KFQADSPKR | nM | = | 39.9
AMRCVGIGNR | nM | = | 872
RTYSDPLALR | nM | ≥ | 70000
RILQRGLLGR | nM | ≥ | 70000

====

- target-desc: HLA-B*51:01
- protocol-notes: IEDB peptide-MHC binding, purified MHC/competitive/radioactivity; filed as Kd, often an IC50 or EC50 that approximates it; bounds were set here for any values at or beyond the usual limits of such assays
- condition-parameters: source organism: Triticum aestivum

primary-sequence | Kd
QPQLPYPQPQL | 353 nM

====

- target-desc: HLA-B*27:05
- protocol-notes: IEDB peptide-MHC binding, purified MHC/direct/fluorescence; filed as Kd, often an IC50 or EC50 that approximates it; bounds were set here for any values at or beyond the usual limits of such assays
- condition-parameters: source organism: Vibrio cholerae
pKd: −log10 of the molar value.
readout-type: pKd

primary-sequence | readout-type | measured-value
AENKKFKLH | pKd | ≤ 4.70

====

- target-desc: HLA-B*27:03
- protocol-notes: IEDB peptide-MHC binding, purified MHC/competitive/fluorescence; filed as Kd, often an IC50 or EC50 that approximates it; bounds were set here for any values at or beyond the usual limits of such assays
- condition-parameters: source organism: Mycobacterium tuberculosis variant bovis BCG str. Pasteur 1173P2
pKd: −log10 of the molar value.

primary-sequence | pKd
AEDLADHHV | ≤ 4.70

====

Here the recorded pKd is given for each entry.
- target-desc: HLA-A*02:01
- protocol-notes: IEDB peptide-MHC binding, purified MHC/direct/fluorescence; filed as Kd, often an IC50 or EC50 that approximates it; bounds were set here for any values at or beyond the usual limits of such assays
- condition-parameters: source organism: Escherichia coli O157:H7
pKd: −log10 of the molar value.
readout-type: pKd

primary-sequence | measured-value
RPPRRGDKF | ≤ 4.70
RGRGVAIHR | ≤ 4.70
WMDMWESPM | 6.00

====

- target-desc: HLA-B*58:01
- protocol-notes: IEDB peptide-MHC binding, purified MHC/direct/fluorescence; filed as Kd, often an IC50 or EC50 that approximates it; bounds were set here for any values at or beyond the usual limits of such assays
- condition-parameters: source organism: Rickettsia prowazekii
readout-type: Kd

primary-sequence | measured-value
VVNYDNSTK | ≥ 20 µM
